molecular target: Kappa-type opioid receptor (Cavia porcellus, UniProt P41144); experiment: Displacement of […] from kappa opioid receptor in Hartley guinea pig brain membrane; type: cell membranes
Sequence (P41144 whole entry): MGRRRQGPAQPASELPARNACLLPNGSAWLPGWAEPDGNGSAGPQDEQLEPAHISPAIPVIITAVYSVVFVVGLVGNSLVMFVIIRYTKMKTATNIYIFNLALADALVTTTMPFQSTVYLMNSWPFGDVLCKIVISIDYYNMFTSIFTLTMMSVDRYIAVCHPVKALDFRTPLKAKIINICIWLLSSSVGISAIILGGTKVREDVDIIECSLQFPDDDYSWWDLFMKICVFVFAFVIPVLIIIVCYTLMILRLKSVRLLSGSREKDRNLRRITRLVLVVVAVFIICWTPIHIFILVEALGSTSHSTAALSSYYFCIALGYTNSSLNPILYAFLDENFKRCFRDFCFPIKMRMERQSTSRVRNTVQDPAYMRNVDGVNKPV
value type: pKi
// pKi is dimensionless: -log10 of concentration (M)

INSERT INTO assay_data (molecule, study_target, value_type, measured) VALUES
  ('CCn1c2c(c3cccc(C)c31)C[C@@]1(O)[C@H]3Cc4ccc(OC)c5c4[C@@]1(CCN3CC1CC1)[C@H]2O5', 'Kappa-type opioid receptor (Cavia porcellus, UniProt P41144)', 'pKi', 5.33),
  ('Oc1ccc2c3c1O[C@H]1c4[nH]c5ccccc5c4C[C@@]4(O)[C@@H](C2)N(CC2CC2)CC[C@]314 [NALTRINDOLE]', 'Kappa-type opioid receptor (Cavia porcellus, UniProt P41144)', 'pKi', 8.13),
  ('COc1ccc2c3c1O[C@H]1c4c(c5cccc6c5n4CCC6)C[C@@]4(O)[C@@H](C2)N(CC2CC2)CC[C@]314.CS(=O)(=O)O', 'Kappa-type opioid receptor (Cavia porcellus, UniProt P41144)', 'pKi', 5.48);

Let us examine a further case.
Input line: // lookup pKi for `COc1ccc2c3c1O[C@H]1c4c(c5cccc6c5n4CCCC6)C[C@@]4(O)[C@@H](C2)N(CC2CC2)CC[C@]314`
Output line: 5.48
